Data origin: patent US11707539B2

assay: Solubility in water after lyophilization
Parameter solubility: see the listing below.
measurement-type: solubility

| compound | measurement-type | value-reported |
| --- | --- | --- |
| C[C@@H](NC(=O)c1ccc(CNC(=O)CN2CCN3CCN4CCN(CC2)CC(=O)[O][Lu]([O]C(=O)C3)[O]C(=O)C4)cc1)C(=O)N1CCC[C@H]1B(O)O [Compound 6555LU] | solubility | > 50 mg/mL |
| C[C@@H](NC(=O)c1ccc(CNC(=O)CN2CCN3CCN4CCN(CC2)CC(=O)[O][Ga]([O]C(=O)C3)[O]C(=O)C4)cc1)C(=O)N1CCC[C@H]1B(O)O [Compound 6555GA] | solubility | > 50 mg/mL |
| C[C@@H](NC(=O)[C@H]1CC[C@H](CNC(=O)CN2CCN3CCN4CCN(CC2)CC(=O)[O][Lu]([O]C(=O)C3)[O]C(=O)C4)CC1)C(=O)N1CCC[C@H]1B(O)O [Compound 6952LU, DOTA(Lu)-TXA-D-alaboroPro] | solubility | > 50 mg/mL |

###

molecular target: recombinant human fibroblast activation protein (FAP) (Homo sapiens (Human), UniProt Q12884); test: In vitro IC50 assay, fibroblast activation protein (Example 15); format: biochemical; settings: Z-Gly-Pro-AMC, room temperature; read-out: FAP IC50
Sequence (Q12884 whole entry): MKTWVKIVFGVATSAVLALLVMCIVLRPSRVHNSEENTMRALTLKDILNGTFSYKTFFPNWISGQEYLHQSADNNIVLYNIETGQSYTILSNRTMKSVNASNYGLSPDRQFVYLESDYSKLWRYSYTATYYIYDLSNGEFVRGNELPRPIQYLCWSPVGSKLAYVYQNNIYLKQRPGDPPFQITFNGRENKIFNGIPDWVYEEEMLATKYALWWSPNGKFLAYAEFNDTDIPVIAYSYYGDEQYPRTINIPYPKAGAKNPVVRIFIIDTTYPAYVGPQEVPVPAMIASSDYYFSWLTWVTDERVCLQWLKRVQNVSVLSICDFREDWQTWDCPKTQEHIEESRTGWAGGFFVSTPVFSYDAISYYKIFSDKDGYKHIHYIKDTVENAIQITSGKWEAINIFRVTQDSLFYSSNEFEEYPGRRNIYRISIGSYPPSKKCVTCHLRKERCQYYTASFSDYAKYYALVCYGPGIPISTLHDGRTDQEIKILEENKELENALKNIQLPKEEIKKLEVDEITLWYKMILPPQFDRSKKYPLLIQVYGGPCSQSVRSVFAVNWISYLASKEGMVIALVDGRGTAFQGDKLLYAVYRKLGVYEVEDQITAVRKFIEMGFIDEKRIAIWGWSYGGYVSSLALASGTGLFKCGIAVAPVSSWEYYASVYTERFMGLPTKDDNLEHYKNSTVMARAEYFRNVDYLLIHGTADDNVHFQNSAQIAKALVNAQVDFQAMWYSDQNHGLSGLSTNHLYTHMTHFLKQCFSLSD
Where a SMILES comes first, the peptide text is derived from it.
Listed compounds paired with reported IC50
measurement-type: IC50 (nM)

| compound | measurement-type | value-reported |
| --- | --- | --- |
| CC(C)[C@H](NC(=O)CNC(=O)CNC(=O)CN1CCN(CC(=O)O)CCN(CC(=O)O)CCN(CC(=O)O)CC1)C(=O)N[C@H](C)C(=O)N1CCCC1B1OC(=O)CN(C)CC(=O)O1 (stereo partly drawn) [Compound 6522M, DOTA-Gly-Gly-Val-D-alaboroPro-MIDA] (HELM PEPTIDE1{[O=C(O)CN1CCN(CC(=O)O)CCN(CC(=O)[*:2])CCN(CC(=O)O)CC1].G.G.V.[dA].[CN1CC(=O)OB(C2CCCN2[*:1])OC(=O)C1]}$$$$V2.0) | IC50 | 280 |
| C[C@@H](NC(=O)c1ccc(NC(=O)CCCCNC(=O)CN2CCN3CCN4CCN(CC2)CC(=O)[O][Lu]([O]C(=O)C3)[O]C(=O)C4)cc1)C(=O)N1CCC[C@H]1B(O)O [Compound 6590LU] | IC50 | 0.4 |
| C[C@@H](NC(=O)[C@H](CO)NC(=O)CN1CCN2CCN(CC(=O)O)CCN(CC1)CC(=O)[O][Cu][O]C(=O)C2)C(=O)N1CCC[C@H]1B(O)O [Compound 6509CU, DOTA[(Cu(II)]-Ser-D-Ala-boroPro] | IC50 | 128 |
| C[C@@H](NC(=O)c1ccc(NNC(=O)CCCCCNC(=O)CN2CCN3CCN4CCN(CC2)CC(=O)[O][Lu]([O]C(=O)C3)[O]C(=O)C4)nc1)C(=O)N1CCC[C@H]1B(O)O [Compound 6958LU] | IC50 | 1.1 |
| C[C@@H](NC(=O)c1ccc(NNC(=O)CCCCCC2=C(/C=C/C3=C(Oc4ccc(S(=O)(=O)O)cc4)C(=C/C=C4/N(CCCCS(=O)(=O)O)c5ccc(S(=O)(=O)O)cc5C4(C)C)/CCC3)C(C)(C)c3cc(S(=O)(=O)O)ccc32)cc1)C(=O)N1CCC[C@H]1B(O)O [Compound 4613C, IRDye 800CW-3860B] | IC50 | 1.7 |
| CC(C)[C@H](NC(=O)CNC(=O)CNC(=O)CN1CCN2CCN(CC(=O)O)CCN(CC1)CC(=O)[O][Cu][O]C(=O)C2)C(=O)N[C@H](C)C(=O)N1CCC[C@H]1B(O)O [Compound 6522CU, DOTA[(Cu(II)]-Gly-Gly-Val-D-Ala-boroPro] (HELM PEPTIDE1{[O=C(O)CN1CCN2CCN(CC(=O)[*:2])CCN(CC1)CC(=O)[O][Cu][O]C(=O)C2].G.G.V.[dA].[OB(O)[C@@H]1CCCN1[*:1]]}$$$$V2.0) | IC50 | 3.5 |
| C[C@@H](NC(=O)CN1CCN2CCN3CCN(CC1)CC(=O)[O][Gd]([O]C(=O)C2)[O]C(=O)C3)C(=O)N1CCC[C@H]1B(O)O [Compound 4535GD, DOTA[(Gd(III)]-D-alaboroPro] | IC50 | 760 |
| C[C@@H](NC(=O)c1ccc(NNC(=O)CN2CCN3CCN4CCN(CC2)CC(=O)[O][Ga]([O]C(=O)C3)[O]C(=O)C4)cc1)C(=O)N1CCC[C@H]1B(O)O [Compound 5183GA] | IC50 | 46.1 |
| CC(C)[C@H](NC(=O)CNC(=O)CNC(=O)CN1CCN2CCN3CCN(CC1)CC(=O)[O][Lu]([O]C(=O)C2)[O]C(=O)C3)C(=O)N[C@H](C)C(=O)N1CCC[C@H]1B(O)O [Compound 6522LU, DOTA(Lu)-Gly-Gly-Val-D-ala-boroPro] (HELM PEPTIDE1{[O=C1CN2CCN3CCN(CC(=O)[*:2])CCN(CC2)CC(=O)[O][Lu]([O]1)[O]C(=O)C3].G.G.V.[dA].[OB(O)[C@@H]1CCCN1[*:1]]}$$$$V2.0) | IC50 | 26 |
| C[C@@H](NC(=O)c1ccc(NNC(=O)CCCCCNC(=O)CN2CCN3CCN4CCN(CC2)CC(=O)[O][Ga]([O]C(=O)C3)[O]C(=O)C4)cc1)C(=O)N1CCC[C@H]1B(O)O [Compound 6486GA] | IC50 | 81 |

###

biological target: recombinant human prolyl oligopeptidase (PREP) (Homo sapiens (Human)); assay: In vitro IC50 assay, prolyl oligopeptidase (Example 15); type: biochemical
Sequence (P48147 whole entry): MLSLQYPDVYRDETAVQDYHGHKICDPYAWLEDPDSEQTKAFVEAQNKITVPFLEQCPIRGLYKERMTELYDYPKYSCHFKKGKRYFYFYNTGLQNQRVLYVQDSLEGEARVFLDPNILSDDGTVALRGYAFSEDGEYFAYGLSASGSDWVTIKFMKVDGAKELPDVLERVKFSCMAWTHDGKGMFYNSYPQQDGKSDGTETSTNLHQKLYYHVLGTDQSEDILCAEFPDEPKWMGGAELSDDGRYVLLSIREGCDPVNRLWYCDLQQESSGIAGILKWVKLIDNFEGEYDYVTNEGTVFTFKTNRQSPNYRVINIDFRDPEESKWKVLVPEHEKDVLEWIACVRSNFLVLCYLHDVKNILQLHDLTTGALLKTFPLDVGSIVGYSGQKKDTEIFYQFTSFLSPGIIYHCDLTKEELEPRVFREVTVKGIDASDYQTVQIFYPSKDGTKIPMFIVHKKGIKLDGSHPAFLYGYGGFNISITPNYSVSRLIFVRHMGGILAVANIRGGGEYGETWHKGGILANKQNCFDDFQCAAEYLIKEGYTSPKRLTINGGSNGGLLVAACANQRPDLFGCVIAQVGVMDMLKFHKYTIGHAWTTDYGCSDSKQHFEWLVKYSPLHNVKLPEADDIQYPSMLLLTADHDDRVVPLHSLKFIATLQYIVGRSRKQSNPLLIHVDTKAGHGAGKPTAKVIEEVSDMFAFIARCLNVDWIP

| smiles | IC50 (µM) |
| --- | --- |
| CC(C)[C@H](NC(=O)CNC(=O)CC[C@H]1C(=O)[O][Lu]23[O]C(=O)CN4CCN(CCN1CCN(CC4)CC(=O)[O]2)CC(=O)[O]3)C(=O)N[C@H](C)C(=O)N1CCC[C@H]1B(O)O | 6.39 |
| C[C@@H](NC(=O)CN1CCN(CC(=O)O)CCN(CC(=O)O)CCN(CC(=O)O)CC1)C(=O)N1CCC[C@H]1B(O)O | 10 |

###

molecular target: recombinant human dipeptidyl peptidase IV (DPPIV) (Homo sapiens (Human)); test: In vitro IC50 assay, dipeptidyl peptidase IV (Example 15); format: biochemical; conditions: Gly-Pro-AMC, room temperature
Sequence (P27487 whole entry): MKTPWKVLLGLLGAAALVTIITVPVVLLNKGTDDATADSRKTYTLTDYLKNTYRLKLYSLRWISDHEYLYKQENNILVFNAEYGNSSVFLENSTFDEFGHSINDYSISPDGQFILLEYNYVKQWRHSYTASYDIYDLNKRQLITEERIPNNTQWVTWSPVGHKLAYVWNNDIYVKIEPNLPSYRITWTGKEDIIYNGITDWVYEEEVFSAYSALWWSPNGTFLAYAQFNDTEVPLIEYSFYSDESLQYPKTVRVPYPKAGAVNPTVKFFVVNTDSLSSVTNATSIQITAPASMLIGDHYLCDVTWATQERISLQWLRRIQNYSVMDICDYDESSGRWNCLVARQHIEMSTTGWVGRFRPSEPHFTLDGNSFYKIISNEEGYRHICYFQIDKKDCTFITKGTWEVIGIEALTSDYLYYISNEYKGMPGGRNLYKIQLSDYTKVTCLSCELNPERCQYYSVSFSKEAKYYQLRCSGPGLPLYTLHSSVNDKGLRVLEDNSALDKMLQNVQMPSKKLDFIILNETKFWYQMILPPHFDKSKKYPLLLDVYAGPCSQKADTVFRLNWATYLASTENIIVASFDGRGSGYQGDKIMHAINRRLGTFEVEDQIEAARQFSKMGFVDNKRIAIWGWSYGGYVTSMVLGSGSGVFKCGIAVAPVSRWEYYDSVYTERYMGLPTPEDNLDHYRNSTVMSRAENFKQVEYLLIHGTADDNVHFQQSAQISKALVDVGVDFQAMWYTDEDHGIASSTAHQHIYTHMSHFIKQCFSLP

| substance | IC50 |
| --- | --- |
| (R)-DOTAGA(Ga)-Gly-Val-Dala-boroPro [Compound 6795DGA] | > 100 µM |

###

pIC50: recorded values
target: recombinant human dipeptidyl peptidase IV (DPPIV) (Homo sapiens (Human)); assay: In vitro IC50 assay, dipeptidyl peptidase IV (Example 15); conditions: Gly-Pro-AMC, room temperature
pIC50: −log10 of the molar value.
measurement-type: pIC50

| compound | measurement-target | measurement-type | value-reported |
| --- | --- | --- | --- |
| CC(C)[C@H](NC(=O)CNC(=O)CC[C@@H]1C(=O)[O][Lu]23[O]C(=O)CN4CCN(CCN1CCN(CC4)CC(=O)[O]2)CC(=O)[O]3)C(=O)N[C@H](C)C(=O)N1CCC[C@H]1B(O)O [Compound 6795DLU, (R)-DOTAGA(Lu)-Gly-Val-Dala-boroPro] | recombinant human dipeptidyl peptidase IV (DPPIV) (Homo sapiens (Human)) | pIC50 | < 4.00 |
| C[C@@H](NC(=O)c1ccc(NN)nc1)C(=O)N1CCC[C@H]1B(O)O [Compound 3860] | recombinant human dipeptidyl peptidase IV (DPPIV) (Homo sapiens (Human)) | pIC50 | < 4.00 |
| C[C@@H](NC(=O)[C@H]1CC[C@H](CNC(=O)CN2CCN3CCN4CCN(CC2)CC(=O)[O][Lu]([O]C(=O)C3)[O]C(=O)C4)CC1)C(=O)N1CCC[C@H]1B(O)O [Compound 6952LU, DOTA(Lu)-TXA-D-alaboroPro] | recombinant human dipeptidyl peptidase IV (DPPIV) (Homo sapiens (Human)) | pIC50 | < 4.00 |
| C[C@@H](NC(=O)c1ccc(CNC(=O)CN2CCN3CCN4CCN(CC2)CC(=O)[O][Lu]([O]C(=O)C3)[O]C(=O)C4)cc1)C(=O)N1CCC[C@H]1B(O)O [Compound 6555LU] | recombinant human dipeptidyl peptidase IV (DPPIV) (Homo sapiens (Human)) | pIC50 | < 4.00 |
| C[C@@H](NC(=O)c1ccc(CNC(=O)CN2CCN3CCN4CCN(CC2)CC(=O)[O][Ga]([O]C(=O)C3)[O]C(=O)C4)cc1)C(=O)N1CCC[C@H]1B(O)O [Compound 6555GA] | recombinant human dipeptidyl peptidase IV (DPPIV) (Homo sapiens (Human)) | pIC50 | < 4.00 |
